Target: EGFR L858R/T790M/C797S (BaF3-LTC cells) (Homo sapiens, UniProt P00533, C797S/L858R/T790M)
Construct: expressed in transfected cells; host or cells: BaF3
Sequence (P00533 25-1210 T790M/C797S/L858R): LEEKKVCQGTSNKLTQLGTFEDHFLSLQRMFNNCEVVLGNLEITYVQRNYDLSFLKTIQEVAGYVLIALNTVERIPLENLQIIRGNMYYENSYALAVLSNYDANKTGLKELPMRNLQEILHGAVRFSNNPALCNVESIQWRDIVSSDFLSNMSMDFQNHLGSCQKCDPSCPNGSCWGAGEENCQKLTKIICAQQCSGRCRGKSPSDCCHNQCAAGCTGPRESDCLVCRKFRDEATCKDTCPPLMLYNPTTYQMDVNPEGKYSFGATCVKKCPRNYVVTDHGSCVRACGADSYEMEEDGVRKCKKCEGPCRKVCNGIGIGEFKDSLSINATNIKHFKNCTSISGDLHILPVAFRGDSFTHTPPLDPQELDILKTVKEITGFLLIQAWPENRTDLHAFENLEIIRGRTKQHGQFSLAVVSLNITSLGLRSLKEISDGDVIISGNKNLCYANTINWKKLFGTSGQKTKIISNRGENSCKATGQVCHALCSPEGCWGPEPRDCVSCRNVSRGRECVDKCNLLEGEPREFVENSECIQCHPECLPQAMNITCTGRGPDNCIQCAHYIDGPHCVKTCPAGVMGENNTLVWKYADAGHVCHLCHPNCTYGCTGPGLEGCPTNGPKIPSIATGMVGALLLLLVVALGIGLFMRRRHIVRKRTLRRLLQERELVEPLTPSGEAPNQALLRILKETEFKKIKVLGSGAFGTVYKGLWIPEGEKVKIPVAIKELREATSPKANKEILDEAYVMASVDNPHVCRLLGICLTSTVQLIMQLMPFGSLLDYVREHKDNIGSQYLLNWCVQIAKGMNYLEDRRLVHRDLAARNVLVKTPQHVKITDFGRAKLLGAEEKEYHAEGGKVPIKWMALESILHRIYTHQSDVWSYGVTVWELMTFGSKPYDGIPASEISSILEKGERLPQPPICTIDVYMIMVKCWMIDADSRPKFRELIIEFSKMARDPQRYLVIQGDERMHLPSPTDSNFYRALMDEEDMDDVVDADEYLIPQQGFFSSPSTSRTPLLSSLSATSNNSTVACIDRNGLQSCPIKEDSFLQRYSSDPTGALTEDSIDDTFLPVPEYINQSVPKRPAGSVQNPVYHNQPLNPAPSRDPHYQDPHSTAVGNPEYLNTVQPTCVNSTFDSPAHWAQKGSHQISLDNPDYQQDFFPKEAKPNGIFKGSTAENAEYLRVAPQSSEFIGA
Assay: EGFR degradation HTRF assay, BaF3-LTC cells
Type: cell-based
Conditions: BaF3-LTC, 16h treatment; read-out: LTC DC50
Value Kind: DC50
# output: number + unit

As a guide, the following entries are already answered.
CCc1cc(Nc2ncc(Br)c(Nc3ccc4nc(C)ccc4c3P(C)(C)=O)n2)c(OC)cc1N1CCC(N2CCN(CCC3CCN(c4cc(F)c(C5CCC(=O)NC5=O)c(F)c4)CC3)CC2)CC1 (stereo not drawn) [Example 312]; 16.1 nM
CCc1cc(Nc2ncc(Br)c(Nc3ccc4nc(C)ccc4c3P(C)(C)=O)n2)c(OC)cc1N1CCC(N2CCN(CCc3ccc4c(c3)C(C)(C)C(=O)N4C3CCC(=O)NC3=O)CC2)CC1 (stereo not drawn) [Example 711]; 2.88 nM

Note: attention shifts to another entry.
CCc1cc(Nc2ncc(C(C)=O)c(Nc3ccc4nccnc4c3P(C)(C)=O)n2)c(OC)cc1N1CCC(N2CCN(CCC3CCN(c4cc(F)c(C5CCC(=O)NC5=O)c(F)c4)CC3)CC2)CC1 (stereo not drawn) [Example 703] on EGFR L858R/T790M/C797S (BaF3-LTC cells) (Homo sapiens, UniProt P00533, C797S/L858R/T790M) gives DC50 = 20 nM

----------
Target: EGFR L858R/T790M/C797S (BaF3-LTC cells) (Homo sapiens, UniProt P00533, C797S/L858R/T790M)
Construct: expressed in transfected cells; host or cells: BaF3
Experiment: EGFR degradation HTRF assay, BaF3-LTC cells
Type: cell-based
Conditions: BaF3-LTC cells; EGFR degradation, IC50 (DC50) from curve fit; read-out: DC50(nM) BaF3-LTC
Label yes (1) when DC50 is strictly below 6 nM; otherwise label no (0).

Solved entries:
CCOc1cc(N2CCC(N3CCN(C(=O)[C@@H]4CCN(c5cc(F)c([C@H]6CCC(=O)NC6=O)c(F)c5)C4)CC3)CC2)c(C)cc1Nc1ncc(Br)c(Nc2ccc3c(=O)n(C)ncc3c2P(C)(C)=O)n1; yes (1)
CCOc1cc(N2CCC(N3CCN(C[C@H]4CCN(c5cccc6c5oc(=O)n6C5CCC(=O)NC5=O)C4)CC3)CC2)c(CC)cc1Nc1ncc(Br)c(Nc2ccc3nc(CC)ccc3c2P(C)(C)=O)n1 (some centres unmarked); no (0)
CCc1cc(Nc2ncc(Br)c(Nc3ccc4c(c3P(C)(C)=O)OCCO4)n2)c(OC)cc1N1CCC(N2CCN(C(=O)[C@@H]3CCN(c4cc(F)c([C@H]5CCC(=O)NC5=O)c(F)c4)C3)CC2)CC1; yes (1)

Okay, next one:
Task item: Confirm or reject: DC50 of CCOc1cc(N2CCC(N3CCN(CCc4c(F)cc5c(oc(=O)n5C5CCC(=O)NC5=O)c4F)CC3)CC2)c(CC)cc1Nc1ncc(Br)c(Nc2ccc3nc(CC)ccc3c2P(C)(C)=O)n1 (centres unmarked) lies strictly below 6 nM
Reply: no (0)

----------
Molecular target: EGFR L858R/T790M/C797S (BaF3-LTC cells) (Homo sapiens, UniProt P00533, C797S/L858R/T790M)
Construct: expressed in transfected cells; host or cells: BaF3
Experiment: EGFR degradation HTRF assay, BaF3-LTC cells
Assay type: cell-based
Details: BaF3-LTC cells; EGFR degradation, IC50 (DC50) from curve fit; read-out: DC50(nM) BaF3-LTC
Value Kind: DC50 (nM)
Provide only the numeric value, understood in nM.

CCc1ccc2c(P(C)(C)=O)c(Nc3nc(Nc4cc(CC)c(N5CCC(N6CCN(C(=O)[C@@H]7CCN(c8cc(F)c([C@H]9CCC(=O)NC9=O)c(F)c8)C7)CC6)CC5)cc4OC(F)(F)F)ncc3Br)ccc2n1; 31.8
CCOc1cc(N2CCC(N3CCN(CCc4ccc5c(c4)oc(=O)n5C4CCC(=O)NC4=O)CC3)CC2)c(CC)cc1Nc1ncc(Br)c(Nc2ccc3nc(C)ccc3c2P(C)(C)=O)n1 (stereo not shown) [Example 676]; 3.14
CCc1ccc2c(P(C)(C)=O)c(Nc3nc(Nc4cc(C)c(N5CCC(N6CCN(CCc7ccc8c(c7)oc(=O)n8C7CCC(=O)NC7=O)CC6)CC5)cc4OC4CC4)ncc3Br)ccc2n1 (stereo not shown); 10.4
CCOc1cc(N2CCC(N3CCN(CCc4cc(F)c5c(c4)C4(CC4)C(=O)N5C4CCC(=O)NC4=O)CC3)CC2)c(CC)cc1Nc1ncc(Br)c(Nc2ccc3nc(CC)ccc3c2P(C)(C)=O)n1 (stereo not shown); 17.8
CCc1ccc2c(P(C)(C)=O)c(Nc3nc(Nc4cc(CC)c(N5CCC(N6CCN(CCCOc7cc(F)c([C@H]8CCC(=O)NC8=O)c(F)c7)CC6)CC5)cc4OC)ncc3Br)ccc2n1; 7.79

The molecule identified as "CCc1cc(Nc2ncc(Br)c(Nc3ccc4nc(C)ncc4c3P(C)(C)=O)n2)c(OC)cc1N1CCC(N2CCN(C(=O)[C@H]3CN(c4cc(F)c([C@H]5CCC(=O)NC5=O)c(F)c4)CC3(C)C)CC2)CC1" registered its DC50 at 4.11

The molecule identified as CCOc1cc(N2CCC(N3CCN(CCc4ccc(F)c5c4n(CC)c(=O)n5C4CCC(=O)NC4=O)CC3)CC2)c(CC)cc1Nc1ncc(Br)c(Nc2cc(F)c3nc(CC)ccc3c2P(C)(C)=O)n1 (stereo not shown) registered its DC50 at 7.62

The molecule identified as CCOc1cc(N2CCC(N3CCN(CCc4c(C(F)(F)F)ccc5c4oc(=O)n5C4CCC(=O)NC4=O)CC3)CC2)c(CC)cc1Nc1ncc(Br)c(Nc2ccc3nc(CC)ccc3c2P(C)(C)=O)n1 (stereo not shown) registered its DC50 at 55.1

The molecule identified as CCc1cc(Nc2ncc(Br)c(Nc3ccc4c(=O)n(C)ncc4c3P(C)(C)=O)n2)c(OC)cc1N1CCC(N2CCN(CCc3ccc4c(c3)oc(=O)n4C3CCC(=O)NC3=O)CC2)CC1 (stereo not shown) registered its DC50 at 1.97

The molecule identified as CCc1ccc2c(P(C)(C)=O)c(Nc3nc(Nc4cc(CC)c(N5CCC(N6CCN(CCc7cccc8c7n(C7CC7)c(=O)n8C7CCC(=O)NC7=O)CC6)CC5)cc4OC)ncc3Br)ccc2n1 (stereo not shown) registered its DC50 at 5.13

----------
System: EGFR Del19/T790M/C797S (BaF3-DTC cells)
Experiment: EGFR degradation HTRF assay, BaF3-DTC cells
Type: cell-based
Conditions: 16h treatment, maximum percentage of degradation
Value Kind: DTC Dmax (%)
Provide only the numeric value, understood in %.

CCc1cc(Nc2ncc(Br)c(Nc3ccc4nccnc4c3P(C)(C)=O)n2)c(OC)cc1N1CCC(N2CCN(CC3CN(c4cccc(C5CCC(=O)NC5=O)c4)C3)CC2)CC1 (centres unmarked) [Example 226]; 77.91

The compound identified as CCc1cc(Nc2ncc(Br)c(Nc3ccc4nc(C)ccc4c3P(C)(C)=O)n2)c(OC)cc1N1CCC(N2CCN(CCc3cc(F)c(C4CCC(=O)NC4=O)c(F)c3)C[C@@H]2C)CC1 (some centres unmarked) [Example 715] registered its DTC Dmax (%) at 92.57

The compound identified as CCc1cc(Nc2ncc(Br)c(Nc3ccc4nccnc4c3P(C)(C)=O)n2)c(OC)cc1N1CCC(N2CCN(C3CCN(c4ccc(C5CCC(=O)NC5=O)cc4)CC3)CC2)CC1 (centres unmarked) [Example 299] registered its DTC Dmax (%) at 80.72

The compound identified as CCc1cc(Nc2ncc(Br)c(Nc3ccc4nccnc4c3P(C)(C)=O)n2)c(OC)cc1N1CCC(N2CCN(CC3CN(c4ccc(C5CCC(=O)NC5=O)c(F)c4)C3)CC2)CC1 (centres unmarked) [Example 252] registered its DTC Dmax (%) at 85.86

The compound identified as CCc1cc(Nc2ncc(Br)c(Nc3ccc4scnc4c3P(C)(C)=O)n2)c(OC)cc1N1CCC(N2CCN(CCc3cc(F)c(C4CCC(=O)NC4=O)c(F)c3)CC2)CC1 (centres unmarked) [Example 206] registered its DTC Dmax (%) at 94.22

----------
Tested on: EGFR Del19/T790M/C797S (BaF3-DTC cells)
Assay: EGFR degradation HTRF assay, BaF3-DTC cells
Format: cell-based
Details: 16h treatment, maximum percentage of degradation
Value Kind: DTC Dmax (%)
Provide only the numeric value, understood in %.

CCc1cc(Nc2ncc(Br)c(Nc3ccc4nccnc4c3P(C)(C)=O)n2)c(OC)cc1N1CCC(N2CCN(C3CC(c4ccc5c(c4)C(C)(C)C(=O)N5C4CCC(=O)NC4=O)C3)CC2)CC1 (stereo not drawn) [Example 317]; 90.74

The compound identified as CCc1cc(Nc2ncc(Br)c(Nc3ccc4nc(C(F)(F)F)ccc4c3P(C)(C)=O)n2)c(OC)cc1N1CCC(N2CCN(C(=O)C3CN(c4ccc5c(c4)CN(C4CCC(=O)NC4=O)C5=O)C3)CC2)CC1 (stereo not drawn) [Example 434] registered its DTC Dmax (%) at 85.05

The compound identified as COc1cc(N2CCC(N3CCN(CCc4ccc(C5CCC(=O)NC5=O)c(F)c4)CC3)CC2)c(C)cc1Nc1ncc(Br)c(Nc2ccc3nccnc3c2P(C)(C)=O)n1 (stereo not drawn) [Example 214] registered its DTC Dmax (%) at 85.16
